assayName: NCI Yeast Anticancer Drug Screen. Data for the mec2-1 strain (AID 157)
settings: S. cerevisiae mec2-1 strain, at 50.0 µM
This is part of a sample that, as a whole, favours compounds with a hit. Of some 79,000 tested, about 15% had one in any assay. Active and inactive are the calls of the source. Rule as the data show it: active = growth inhibition above about 70%; inactive = the rest.
Field 'call' accepts T for active, F for inactive

>  <molecule>
CC(C)=CC(=O)O[C@@H]1CC(C)(C)CC2C3=CCC4[C@]56CC[C@](O)(OC5)C(C)(C)C6CC[C@@]4(C)C3(C)CC[C@]21C(=O)O (some centres not stated)

>  <className>
T

$$$$
>  <molecule>
O=[N+]([O-])c1cc(CCl)ccc1CCl

>  <className>
T

$$$$
>  <molecule>
CC(=O)Oc1ccc2c(c1)Cc1cc(N=C3C=CC(=O)O3)ccc1-2

>  <className>
T

$$$$
>  <molecule>
O=C([O][Sn]([O]C(=O)c1ccccc1)([c]1ccccc1)[c]1ccccc1)c1ccccc1

>  <className>
T

$$$$
>  <molecule>
CC1(C)C(=O)OC(n2cc(F)c(=O)[nH]c2=O)C1=O (configuration not stated)

>  <className>
F

$$$$

Exam item: # fetch the recorded call for O=C(O)CNc1ccc(Cl)c(Cl)c1 here
Marked response: F

Exam item: What about this molecule? CC(C)/C(Cl)=N\OC(=O)Nc1ccc(F)cc1
Marked response: F

Exam item: Then what about the molecule FC(F)(F)c1cc(NC(=S)N2c3ccccc3-n3cccc3C2c2cccnc2)cc(C(F)(F)F)c1 (configuration not stated) ?
Marked response: F

Exam item: Query C/C(=N\O)C1CC2C=C(C#N)C1N(Cc1ccccc1)C2 (configuration not stated) next
Marked response: F

Exam item: Also need CC[C@@]1(O)C(=O)OCc2c1cc1n(c2=O)Cc2cc3c(N)cccc3nc2-1 , thanks.
Marked response: F

###

assayName: NCI Yeast Anticancer Drug Screen. Data for the wt2 strain (AID 169);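 also: 0% = growth of vehicle-treated yeast cultures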
settings: S. cerevisiae wt2 strain growth inhibition; at 1.2 µM; stronger effect = higher value
This is part of a sample that, as a whole, favours compounds with a hit. Of some 79,000 tested, about 15% had one in any assay.
propertyName: growth inhibition (%)
One number for each entry, in %.

Solved cases (8 shown):
>  <compound>
CCCCCCCCCCCC(=O)N(C)C

>  <scaleUnit>
%

>  <measurement>
-6

$$$$
>  <compound>
Cc1ccc(Cl)c2[nH]c(-c3ccccc3)cc(=O)c12

>  <scaleUnit>
%

>  <measurement>
-2

$$$$
>  <compound>
O=Nc1c(NO)ccc2nn(-c3ccccc3)nc12

>  <scaleUnit>
%

>  <measurement>
25

$$$$
>  <compound>
c1ccc2c(c1)c1ncccc1c1nccnc21

>  <scaleUnit>
%

>  <measurement>
9

$$$$
>  <compound>
CC1OCC2OC(C)OC(C3C4=C(CC(C)(C)CC4=O)OC4=C3C(=O)CC(C)(C)C4)C2O1 (centres undefined)

>  <scaleUnit>
%

>  <measurement>
-1

$$$$
>  <compound>
CCOC(=O)c1cnc2c(C(F)(F)F)cccc2c1N=[N+]=[N-]

>  <scaleUnit>
%

>  <measurement>
-1

$$$$
>  <compound>
C(CCSC1=NCCN1)CSC1=NCCN1 (tested in a mixture with another compound)

>  <scaleUnit>
%

>  <measurement>
-2

$$$$
>  <compound>
O=C1C=CC(=Nc2ccc3c(c2)Cc2cc(NC(=O)C(F)(F)F)ccc2-3)O1

>  <scaleUnit>
%

>  <measurement>
1

$$$$

We next turn to a different compound, shown below.
Exam item: What value of growth inhibition has been recorded for this entry: O=c1ssc2ncccc12
Marked response: -6

###

assayName: NCI Yeast Anticancer Drug Screen. Data for the rad14 strain (AID 159);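 also: 0% = growth of vehicle-treated control cultures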
settings: S. cerevisiae rad14 strain growth inhibition; at 11.0 µM
The panel holds about 79,000 compounds, 15% with a hit somewhere; the sample as a whole holds those more often. Activity calls are given as the source filed them. Cut-off read from the data, not from the text of the source: active = growth inhibition above about 70%; inactive = the rest.
Choose one outcome from this list and give only that: active, inactive

Examples from the recorded data:
>  <chemicalSmiles>
COc1cc2c(cc1[N+](=O)[O-])C(=O)C(Br)(Br)CCC2

>  <className>
active

$$$$
>  <chemicalSmiles>
O=c1ssc2ncccc12

>  <className>
inactive

$$$$
>  <chemicalSmiles>
O=[N+]([O-])c1ccc([N+]2=NC(c3ccccc3)=NN(c3ccccc3)C2)cc1

>  <className>
inactive

$$$$

Continue with the molecule presented below.
Exam item: # outcome recorded in this test, key = CC(=O)Nc1ccc(/C=C(\C#N)c2ccc(C)cc2)cc1
Marked response: inactive

###

assayName: NCI Yeast Anticancer Drug Screen. Data for the rad18 strain (AID 177)
settings: S. cerevisiae rad18 mutant growth inhibition; at 3.7 µM; stronger effect = higher value
The panel holds about 79,000 compounds, 15% with a hit somewhere; the sample as a whole holds those more often.
Please provide measured growth inhibition for the entries that follow.
Answers are plain numbers, in %.

Illustrative cases are given below, each with its answer.
>  <molecule>
O=C(N=Nc1cc(Cl)ccc1Cl)NNc1cc(Cl)ccc1Cl

>  <measurement>
-3

$$$$
>  <molecule>
CC(C)/C(Cl)=N\OC(=O)Nc1cccc(Cl)c1

>  <measurement>
-8

$$$$
>  <molecule>
C(CCSC1=NCCN1)CSC1=NCCN1 (tested in a mixture with another compound)

>  <measurement>
52

$$$$

Provide growth inhibition values for the following items, in order.
1. c1ccc2c(c1)Oc1cccc3cccc-2c13
2. COc1cc2ccc(/C=C\[N+](=O)[O-])cc2cc1OC
3. C[S+](C)C1(c2ccccc2)C(=O)c2ccccc2C1=O

Marked response:
[26, -33, 9]

###

assayName: NCI Yeast Anticancer Drug Screen. Data for the rad18 strain (AID 177)
settings: S. cerevisiae rad18 mutant growth inhibition; at 100.0 µM; stronger effect = higher value
Compounds without any hit were thinned out: in the full panel of roughly 79,000, 15% have a hit.
propertyName: growth inhibition (%)
Answers are plain numbers, in %.

Give growth inhibition for each of the items listed below.
1. CC(C)(CN1CCCCC1)C(=O)CC(SCCS(=O)(=O)O)c1ccc(Br)cc1 (centres undefined)
2. CC(=O)Nc1ccc(SC(C)=O)cc1

Marked response:
55
84

Each of the following entries comes with a recorded value; kindly state growth inhibition for each.
1. Cc1cc(S(=O)(=O)/N=C(/NN)NNc2cccc(C(F)(F)F)n2)c(S)cc1Cl
2. O=[N+]([O-])c1cccc2nc3ccccc3c(NCCCN3CCOCC3)c12

Marked response:
1: 16; 2: 99

###

assayName: NCI Yeast Anticancer Drug Screen. Data for the rad50 strain (AID 155);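 also: 0% = growth of vehicle-only cultures of the same strain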
settings: S. cerevisiae rad50 strain growth inhibition; at 50.0 µM; stronger effect = higher value
About 79,000 compounds went through this panel and 15% of them were active in at least one assay; those are over-represented in the sample as a whole.
I'd appreciate it if you could supply growth inhibition values for the items below.
One number for each entry, in %.

Below, each entry is followed by its recorded growth inhibition result.
>  <molecule>
O=C1C2C=CC1C1C(=O)OC(=O)C21 (stereo not given)

>  <propertyName>
growth inhibition

>  <measurement>
83.2

$$$$
>  <molecule>
Cc1cc2c(cc1C(=O)CCC(=O)O)CC1(C2)Cc2cc(C)c(C(=O)CCC(=O)O)cc2C1

>  <propertyName>
growth inhibition

>  <measurement>
56.5

$$$$
>  <molecule>
Cn1c(N)nc(-c2ccc(Cl)cc2)c1SSc1c(-c2ccc(Cl)cc2)nc(N)n1C

>  <propertyName>
growth inhibition

>  <measurement>
95.5

$$$$

Could I get growth inhibition for every one of these entries?
1. O=C(N=Nc1cc(Cl)ccc1Cl)NNc1cc(Cl)ccc1Cl
2. Fc1ccc(NC(=S)SCc2ccc3c(c2)OCO3)cc1F
3. CC(=O)ON1C(=O)c2cccc3cccc(c23)C1=O
4. CN(Cc1cnc2nc(N)nc(N)c2n1)c1ccc(C(=O)N[C@@H](CCC(=O)O)C(=O)O)cc1
5. O=[N+]([O-])c1ccc([N+]2=NC(c3ccccc3)=NN(c3ccccc3)C2)cc1
6. COC(=O)c1ccc([N+](=O)[O-])c(O)c1
7. CCN(CC)C(C)(C)C(=O)/C=C/c1ccccc1
8. Nc1ncncc1C(C1=C(O)COC1=O)C1=C(O)COC1=O

Marked response:
74.4
92.2
81.9
88.6
67.3
77.5
17.2
8.05

Go through the list and state growth inhibition for each entry.
1. O=C(O)CNc1ccc(Cl)c(Cl)c1
2. CCOC(=O)C1=C(C(=O)c2ccccc2)C(c2ccccc2[N+](=O)[O-])C(C(=O)c2ccccc2)=C(C(=O)OCC)N1
3. Cc1nc(-c2ccccc2)c(-c2ccccc2)s1
4. CCCCCCCCC/C=C/C=C/C(=O)NCC(=O)NC1C(O)C(O)C(Nc2ncnc3nc[nH]c23)OC1C(O)CO (stereo not given)
5. O=C(NCCCNCCCNC(=O)c1cc(-c2ccccc2)nc2ccccc12)c1cc(-c2ccccc2)nc2ccccc12
6. COc1cc(C2C3=C(COC3=O)Oc3cc4c(cc32)OCO4)ccc1O (stereo not given)
7. O=CNc1ccc2c(c1)C(=O)c1ccccc1-2
8. NC(=NCc1ccccc1)N/N=C\c1ccnc2ccccc12

Marked response:
[78.2, 71.6, 84.4, 16.9, 37.3, 55.9, 94.2, 36]

The measured values listed here are drawn from PubChem BioAssay (NCI).
